Just for reference, patent US10364256B2 is where these values come from.

# target.desc: full length Keap1 protein / full length NRF2 protein (Homo sapiens, UniProt Q14145)
# Construct: full length NRF2 protein and full length Keap1 protein (Keap1 exists a dimer) are used; His
# Sequence (Q14145 whole entry): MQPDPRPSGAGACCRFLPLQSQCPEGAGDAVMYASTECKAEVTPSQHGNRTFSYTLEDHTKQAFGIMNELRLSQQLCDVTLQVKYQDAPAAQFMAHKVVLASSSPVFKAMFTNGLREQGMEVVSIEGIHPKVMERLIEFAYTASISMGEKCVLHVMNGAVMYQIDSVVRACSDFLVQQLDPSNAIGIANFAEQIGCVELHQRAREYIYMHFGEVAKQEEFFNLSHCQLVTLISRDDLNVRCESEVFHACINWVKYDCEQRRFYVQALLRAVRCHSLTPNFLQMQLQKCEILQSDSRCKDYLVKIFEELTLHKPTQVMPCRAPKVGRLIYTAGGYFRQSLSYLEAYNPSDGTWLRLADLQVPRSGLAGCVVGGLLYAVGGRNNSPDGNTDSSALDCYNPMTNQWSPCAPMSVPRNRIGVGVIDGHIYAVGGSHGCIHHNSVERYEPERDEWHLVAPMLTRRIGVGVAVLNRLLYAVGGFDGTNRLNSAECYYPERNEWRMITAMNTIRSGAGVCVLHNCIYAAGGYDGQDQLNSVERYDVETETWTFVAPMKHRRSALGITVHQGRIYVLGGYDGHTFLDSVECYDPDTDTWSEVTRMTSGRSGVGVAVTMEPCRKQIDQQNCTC
# method.notes: NRF2-Keap1 TR-FRET Low Protein Assay
# Format: binding
# applied.conditions: 1.25 nM Keap1 FlagHis and 2.5 nM biotin-NRF2 added
# Method: NRF2-Keap1 TR-FRET Low Protein Assay In the NRF2-Keap1 TR-FRET (time-resolved fluorescence resonance energy transfer) low protein assay, full length NRF2 protein and full length Keap1 protein (Keap1 exists a dimer) are used. […] Plates are spun at 500 rpm for 1 minute, incubated for 1 hour at RT, and read on an Envision plate reader using a 320 nm excitation filter and 615 nm and 665 nm emission filters. […]
pIC50: −log10 of the molar value.
So I've got a bunch of molecules here, and I need their pIC50 values.

Use the examples below as a reference point.
Cn1cc([C@@H]2C[C@H]2c2c(C(=O)O)cnn2-c2cccc(-c3cccc(OCC4CCSCC4)c3)c2)nn1 (racemic)    7.00 to 8.00
CCC[C@@H]1CCCCN1C(=O)c1cccc(-c2cccc(-n3ncc(C(=O)O)c3C3CC3c3cnn(C)c3)c2)c1F (stereo partly shown)    > 8.00
Cn1cc([C@@H]2C[C@H]2c2c(C(=O)O)cnn2-c2cccc(-c3cccc(CN4CCOc5ccccc5C4)c3)c2)nn1 (racemic)    7.00 to 8.00

Dear colleague, could you please provide pIC50 for the molecules listed below?
1. Cn1cc(C2CC2c2c(C(=O)O)cnn2-c2cccc(-c3cccc(OC4CCCN(C(=O)OC(C)(C)C)C4)c3)c2)nn1 (stereo not shown)
2. Cn1cc([C@@H]2C[C@H]2c2c(C(=O)O)cnn2-c2cccc(-c3cccc(OCC4CCCCC4)c3F)c2)nn1 (racemic)
3. C[C@H](Oc1cccc(-c2cccc(-n3ncc(C(=O)O)c3[C@@H]3C[C@H]3c3cn(C4CCCCC4)nn3)c2)c1)C1CCCCC1 (racemic)

Response given:
1. 7.00 to 8.00
2. 7.00 to 8.00
3. 7.00 to 8.00

====

# target.desc: full length Keap1 protein / full length NRF2 protein (Homo sapiens)
# Construct: full length NRF2 protein and full length Keap1 protein (Keap1 exists a dimer) are used; His
# method.notes: NRF2-Keap1 TR-FRET Low Protein Assay
# Format: binding
# applied.conditions: 1.25 nM Keap1 FlagHis and 2.5 nM biotin-NRF2 added
property.measured: IC50

Use the examples below as a reference point.
CCC[C@@H]1CCCCN1C(=O)c1cccc(-c2cccc(-n3ncc(C(=O)O)c3CCc3cn(C)nn3)c2)c1F    10 to 100 nM
CC1(C)CCc2cnn(-c3cccc(-c4cccc(-n5ncc(C(=O)O)c5C(F)(F)F)n4)c3)c21    100 to 1000 nM
CCCC1CCCCN1C(=O)c1cccc(-c2cccc(-n3ncc(C(=O)O)c3C3CC3)c2)c1F (stereo in doubt) [Example 54d]    10 to 100 nM
C[C@H](Oc1cccc(-c2cccc(-n3ncc(C(=O)O)c3[C@@H]3C[C@H]3c3cn(C4CCN(C)CC4)nn3)c2)c1)C1CCCCC1 (racemic)    10 to 100 nM
CCC1CCC(COc2cccc(-c3cccc(-n4ncc(C(=O)O)c4[C@@H]4C[C@H]4c4cn(C)nn4)c3)c2)CC1 (mixture of isomers)    10 to 100 nM

Dear colleague, could you please provide IC50 for the compounds listed below?
1. Cc1nn(-c2cccc(-c3cccc(OCC4CCCCC4)c3)c2)c(C2CC2c2cn(C)nn2)c1C(=O)O (stereo not shown)
2. CCCC1CCCCN1C(=O)c1cccc(-c2cccc(-n3ncc(C(=O)O)c3C3CC3c3cn(C)nn3)c2)c1 (stereo not shown)

Response given:
1000 to 10000 nM
< 10 nM

====

# target.desc: Keap1 Kelch domain (321-609) / TAMRA-labeled 16mer NRF2 peptide (ETGE motif) (Homo sapiens, UniProt Q14145)
# Construct: the Kelch domain (321-609) of Keap1 is used
# method.notes: NRF2-Keap1 FP Assay (Keap1 Kelch fluorescence polarization)
# applied.conditions: 20 nM Keap1 (321-609), 8 nM Tamra labeled peptide
pIC50: −log10 of the molar value.
property.measured: pIC50

Use the examples below as a reference point.
Cc1nnc(-c2cccc(-c3cccc(-n4ncc(C(=O)O)c4C4CC4)c3)c2)o1    < 5.00
CCCC1CCCCN1C(=O)c1cccc(-c2cccc(-n3ncc(C(=O)O)c3C3CC3c3cccnn3)c2)c1 (centres unmarked)    7.00 to 8.00

Dear colleague, could you please provide pIC50 for the molecules listed below?
1. Cn1cc([C@@H]2C[C@H]2c2c(C(=O)O)cnn2-c2cccc(-c3cccc(OCC4CCCCC4)c3)c2)nn1
2. CC(CC1CCCCC1)Oc1cccc(-c2cccc(-n3ncc(C(=O)O)c3C3CC3)c2)c1 (centres unmarked)
3. CCC1c2ccccc2OCCN1Cc1cccc(-c2cccc(-n3ncc(C(=O)O)c3[C@H]3C[C@@H]3c3cn(C)nn3)c2)c1 (mixture of isomers)

Response given:
1: 7.00 to 8.00; 2: 5.00 to 6.00; 3: 7.00 to 8.00

====

# target.desc: full length Keap1 protein / full length NRF2 protein (Homo sapiens, UniProt Q14145)
# Construct: full length NRF2 protein and full length Keap1 protein (Keap1 exists a dimer) are used; His
# method.notes: NRF2-Keap1 TR-FRET Assay
# Type: binding
# applied.conditions: 25 nM Keap1-FlagHis and 50 nM biotin-NRF2 added
pIC50: −log10 of the molar value.
property.measured: pIC50

Cn1cc([C@H]2C[C@@H]2c2c(C(=O)O)cnn2-c2cccc(-c3cccc(OCc4ccc(-c5ccccc5)cc4)c3)c2)nn1 (racemic)    5.00 to 6.00
Cn1cc([C@@H]2C[C@H]2c2c(C(=O)O)cnn2-c2cccc(-c3cccc(OCC4CCC(F)(F)CC4)c3)c2)nn1 (racemic)    6.00 to 7.00
CC(COc1cccc(-c2cccc(-n3ncc(C(=O)O)c3C3CC3c3cn(C)nn3)c2)c1)C1CCCCC1 (centres unmarked)    6.00 to 7.00
COC(c1cccc(-c2cccc(-n3ncc(C(=O)O)c3C3CC3c3cn(C)nn3)c2)c1)C(C)C (centres unmarked)    6.00 to 7.00
Cc1ccnn1-c1cccc(-c2cccc(-n3ncc(C(=O)O)c3C3CC3)c2)c1    5.00 to 6.00

Dear colleague, could you please provide pIC50 for the compounds listed below?
1. CC(C)CC1CCCCN1C(=O)c1cccc(-c2cccc(-n3ncc(C(=O)O)c3C3CC3)c2)c1F (centres unmarked)
2. CN(CC1CCCC1)C(=O)c1cccc(-c2cccc(-n3ncc(C(=O)O)c3C3CC3)c2)c1F
3. Cn1cc(C2CC2c2c(C(=O)O)cnn2-c2cccc(-c3cccc(OCc4ccc(F)cc4)c3)c2)nn1 (centres unmarked)

Response given:
["6.00 to 7.00", "6.00 to 7.00", "5.00 to 6.00"]

====

# target.desc: Keap1 Kelch domain (321-609) / TAMRA-labeled 16mer NRF2 peptide (ETGE motif) (Homo sapiens, UniProt Q14145)
# Construct: the Kelch domain (321-609) of Keap1 is used
# method.notes: NRF2-Keap1 FP Assay (Keap1 Kelch fluorescence polarization)
# applied.conditions: 20 nM Keap1 (321-609), 8 nM Tamra labeled peptide
So I've got a bunch of compounds here, and I need their IC50 values.

CC(=O)N1CCC(c2c(C(=O)O)cnn2-c2cccc(-c3cccc(C(=O)N(C)C)c3)c2)CC1    1000 to 10000 nM
Cn1cc(C2CC2c2c(C(=O)O)cnn2-c2cccc(-c3cccc(OCc4ccc(F)cc4)c3)c2)nn1 (stereo not drawn)    100 to 1000 nM

Dear colleague, could you please provide IC50 for the compounds listed below?
1. CC(Oc1cccc(-c2cccc(-n3ncc(C(=O)O)c3[C@H]3C[C@@H]3c3cn(C(C)C)nn3)c2)c1)C1CCCCC1 (mixture of isomers)
2. CCC[C@@H]1CCCCN1C(=O)c1cccc(-c2cccc(-n3ncc(C(=O)O)c3C3CC3(F)F)c2)c1 (stereo partly drawn)
3. CCC[C@@H]1CCCCN1C(=O)c1cccc(-c2cccc(-n3ncc(C(=O)O)c3CCc3cn(C)nn3)c2)c1F
4. CCC[C@@H]1CCCCN1C(=O)c1cccc(-c2cccc(-n3ncc(C(=O)O)c3C3CC3c3cnn(C)c3)c2)c1 (stereo partly drawn)
5. CCCC1COCCN1C(=O)c1cccc(-c2cccc(-n3ncc(C(=O)O)c3C3CC3)c2)c1F (stereo not drawn)
6. Cn1cc(C2CC2c2c(C(=O)O)cnn2-c2cccc(-c3cccc(C(O)C4CCCCC4)c3)c2)nn1 (stereo not drawn)
7. Cc1nn(-c2cccc(-c3cccc(OCC4CCCCC4)c3)c2)c(C2CC2c2cn(C)nn2)c1C(=O)O (stereo not drawn)
8. CC(Cc1cccc(-c2cccc(-n3ncc(C(=O)O)c3[C@@H]3C[C@H]3c3cn(C)nn3)c2)c1)C1CCCCC1 (single isomer, unassigned) [Example 116e]

Response given:
1: 100 to 1000 nM; 2: 10 to 100 nM; 3: 10 to 100 nM; 4: 10 to 100 nM; 5: 10 to 100 nM; 6: 10 to 100 nM; 7: 100 to 1000 nM; 8: 10 to 100 nM
